Origin of measurements: patent US20150353495A1

Test system: JAK1/3 signaling to STAT6 in Ramos B cells
methodNotes: IL4 stimulation of JAK1/3 signaling to STAT6 in Ramos B cells (pSTAT6 Y641, FACS)
Type: cell-based
recordedConditions: Homo sapiens, 1.0 uM compound, read-out: IL-4/STAT6 in Ramos Percent Inhibition at 1.0 uM
Hi, to clarify the labels: 1.0 covers inhibition at 1 µM from 70% upward, 0.0 covers anything below 70%.

Here are 5 compounds together with their reported answers.
> print(dat)
                                        mol  qualitativelabel
1  N#CCC(=O)N1CCC(c2ccc(Nc3cc(NCc4ccccc4F)c(C(N)=O)cn3)cc2)CC1               0.0
2  NC(=O)c1cnc(Nc2ccc(C3CCNCC3)cc2)cc1NCc1ccccc1F               0.0
3  NC(=O)c1cnc(Nc2ccc3c(c2)NC(=O)CO3)cc1NCc1ccccc1               0.0
4  NC(=O)c1cnc(Nc2ccc(C(=O)N3CCC3)cc2)cc1NCc1c(F)cccc1F               1.0
5  Cc1cc(Nc2cc(NCc3cccc(F)c3)c(C(N)=O)cn2)ccc1N1CCCC1=O               0.0

IN: Answer whether inhibition at 1 µM of NC(=O)c1cnc(Nc2ccc(C(=O)N3CCC3)cc2)cc1NCc1cc(F)ccc1F is greater than or equal to 70%.
OUT: 1.0

IN: Answer whether inhibition at 1 µM of CN(C)C(=O)N1CCC(c2ccc(Nc3cc(NCc4ccccc4F)c(C(N)=O)cn3)cc2)CC1 is greater than or equal to 70%.
OUT: 0.0

====

Give measured IC50 for each item. Keep answers brief.
tgt: JAK1 (Homo sapiens)
Construct: 5 μl of catalytic domain recombinant Kinase enzyme+Tyr peptide substrate (Invitrogen, CA); purchased Invitrogen
Sequence (P23458 875-1153 limits assumed): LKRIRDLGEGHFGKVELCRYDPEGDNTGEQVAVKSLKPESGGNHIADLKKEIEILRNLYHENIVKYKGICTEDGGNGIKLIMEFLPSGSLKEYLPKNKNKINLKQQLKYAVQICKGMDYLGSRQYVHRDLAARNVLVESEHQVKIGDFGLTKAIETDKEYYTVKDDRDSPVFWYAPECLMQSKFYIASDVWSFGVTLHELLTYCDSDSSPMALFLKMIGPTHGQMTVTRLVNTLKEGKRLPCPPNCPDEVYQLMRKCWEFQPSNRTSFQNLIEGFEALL
methodNotes: Z'-LYTE kinase assay JAK1
Assay type: biochemical

Batch: IC50 for all items listed.
1. CS(=O)(=O)Nc1cccc(Nc2cc(NCc3ccccc3)c(C(N)=O)cn2)c1 [Example 388]
2. C[C@@H](Nc1nc(Nc2ccc(OCCN3CCCC3)cc2)c(F)cc1C(N)=O)c1ccccc1 [Example 27]
3. CC(C)c1cccc(Nc2cc(NCc3ccccc3F)c(C(N)=O)cn2)c1 [Example 162]
4. CC(=O)N1CCN(c2ccc(Nc3ncc(C(N)=O)c(NCc4cccc(F)c4)c3Cl)cc2)CC1 [Example 376]

OUT:
1: 100 to 1000 nM; 2: > 1000 nM; 3: > 1000 nM; 4: > 1000 nM

====

Give measured pIC50 for each item. Keep answers brief.
tgt: JAK2 (Homo sapiens)
Construct: 5 μl of catalytic domain recombinant Kinase enzyme+Tyr peptide substrate (Invitrogen, CA)
Sequence (O60674 849-1124 limits assumed): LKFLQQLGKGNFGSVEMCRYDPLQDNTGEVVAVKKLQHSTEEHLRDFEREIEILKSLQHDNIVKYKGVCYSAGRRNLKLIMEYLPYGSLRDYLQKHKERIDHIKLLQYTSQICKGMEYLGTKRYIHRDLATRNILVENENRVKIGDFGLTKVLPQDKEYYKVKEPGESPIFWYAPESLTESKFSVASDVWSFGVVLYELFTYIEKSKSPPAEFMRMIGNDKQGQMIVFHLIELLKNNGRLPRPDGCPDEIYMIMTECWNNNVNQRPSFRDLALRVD
methodNotes: Z'-LYTE kinase assay JAK2
pIC50: −log10 of the molar value.

Consider the reported pIC50 for these molecules:
> print(dat)
                                   molecule  propertymeasured        result
1  COc1cc(Nc2cc(NCc3ccccc3)c(C(N)=O)cn2)cc(OC)c1OC [Example 280]             pIC50  6.00 to 7.00
2  CCC(=O)N1CCC(c2ccc(Nc3cc(NCc4cccc(F)c4F)c(C(N)=O)cn3)cc2)CC1 [Example 196]             pIC50  7.00 to 8.00
3  CN(C(=O)C1CC1)c1ccc(Nc2cc(NCc3cccc4cc[nH]c34)c(C(N)=O)cn2)cc1 [Example 478]             pIC50  6.00 to 7.00
4  CCS(=O)(=O)N1CCC(Nc2cc(Nc3ccc(C4CCOCC4)cc3)ncc2C(N)=O)CC1 [Example 166]             pIC50  6.00 to 7.00
5  NC(=O)c1cnc(Nc2ccc(N3CCCCC3=O)cc2)cc1NCc1cccc(F)c1 [Example 64]             pIC50  7.00 to 8.00

Batch: pIC50 for all items listed.
1. CCC(=O)N1CCC(c2ccc(Nc3cc(NCc4cccc(-c5cccnc5)c4)c(C(N)=O)cn3)cc2)CC1 [Example 416]
2. COc1ccc(Nc2cc(NCc3ccccc3)c(C(N)=O)cn2)cc1C [Example 279]
3. NC(=O)c1cnc(Nc2cccc(C(=O)N3CCC3)c2)cc1NCc1cc(F)ccc1F [Example 99]

OUT:
< 6.00
< 6.00
6.00 to 7.00
